- Experimental target: T1, mouse DLL3 extracellular domain (ECD) with C-terminal 8xHis tag and Avi tag (mouse, UniProt O88516 33-490)
- T1 construct: extracellular domain; Expressed in Expi293, purified by IMAC and SEC; also called msDLL3; not shown: Avi tag
- T1 sequence: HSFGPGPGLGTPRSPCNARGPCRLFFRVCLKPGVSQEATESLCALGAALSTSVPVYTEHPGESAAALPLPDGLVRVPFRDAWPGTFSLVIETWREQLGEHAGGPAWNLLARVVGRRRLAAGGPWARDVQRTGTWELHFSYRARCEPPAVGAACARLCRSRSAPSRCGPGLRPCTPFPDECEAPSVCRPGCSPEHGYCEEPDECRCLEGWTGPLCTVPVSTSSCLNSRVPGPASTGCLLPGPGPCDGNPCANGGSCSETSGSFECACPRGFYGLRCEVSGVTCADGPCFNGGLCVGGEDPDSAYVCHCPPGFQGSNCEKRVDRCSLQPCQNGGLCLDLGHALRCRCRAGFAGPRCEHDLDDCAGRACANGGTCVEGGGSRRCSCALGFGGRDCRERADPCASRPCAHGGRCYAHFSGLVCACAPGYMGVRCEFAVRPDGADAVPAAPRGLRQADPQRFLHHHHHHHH
- Method: SPR (Biacore), 37 C; scFv-Fc captured on chip, mouse DLL3 ECD in solution; 1:1 Langmuir fit
pKd: −log10 of the molar value.
Form field: pKd (one value per entry).
Property name: pKd

1. 6F8 scFv-Fc fusion (Fc fusion, not shown: a dimerising Fc or GST, scFv-Fc expressed in Expi293) scFv: QVQLVQSGAEVKKPGSSVKVSCKASGGTFTNYCISWVRQAPGQGLEWMGGIIPIFGTTNYAQTFQGRVTITADKSTSTAYMELSSLRSEDTAVYYCARDNGDRYYYDMDVWGQGTTVTVSSGGGGSGGGGSGGGGSGGGGSQSVLTQPPSVSAAPGQKVTISCSGSSSNIGNNYVSWYQQLPGTAPKLLIYDNNKRPSGIPDRFSGSKSGTSATLGITGLQTGDEADYYCGTWDSSLSAVVFGGGTKLTVL; 7.71
2. 26C8 scFv-Fc fusion (Fc fusion, not shown: a dimerising Fc or GST, scFv-Fc expressed in Expi293) scFv: QVQLQESGPGLVKPSETLSLTCTVSDNSISNYYWSWIRQPPGKGLEWIAYIYYSGTTNYNPSLKSRVTISLDTSKNQFSLQLSSVTAADAAVYYCARVFHWGFAFDIWGQGTMVTVSSGGGGSGGGGSGGGGSGGGGSEIVLTQSPGTLSLSPGERATLSCRASQRVSNTYLAWYQQNPGQAPRLLIYGASSRATGIPDRFSGSGSGTDFTLTISRLEPEDFAVYYCQQYGTSPLTFGGGTKVEIK; 8.52
3. 10G1-K scFv-Fc fusion (Fc fusion, not shown: a dimerising Fc or GST, scFv-Fc expressed in Expi293) scFv: EVQLLESGGGLVQPGGSLRLSCAASGFTFSSYAMNWVRQAPGKGLEWVSTISGSGGSTYYADSVKGRFTISRDNSKNTLYLQMNSLRAEDTAVFYCAIDPEYYDILTGGDYWGQGTLVTVSSGGGGSGGGGSGGGGSGGGGSDIQMTQSPSAMSASVGDRVTITCRASQGISNYLAWFQQKPGKVPKRLIYAASSLQSGVPSRFSGSGSGTEFTLTISSLQPEDFATYFCLQHDSFPLTFGGGTKVEIK; 7.56
4. 2A6.C5 scFv-Fc fusion (Fc fusion, not shown: a dimerising Fc or GST, scFv-Fc expressed in Expi293) scFv: QVQLQESGPGLVKPSETLSLTCTVSNVSISSYYWSWIRQPPGKGLEWIGYIYYSGTTNYNPSLKSRVTMSVDTSKNQFSLKLSSVTAADTAVYFCARLSNWGFAFDIWGQGTMVTFSSGGGGSGGGGSGGGGSGGGGSEIVLTQSPGTLSLSPGERATLSCRASQTISSSYLAWYQQKPGQAPRLLIYGASSRATGIPDRFSGSGSGTEFTLTISRLEPEDFAVYYCQQYGWSPITFGQGTRLEIK; 7.38
5. 8E11 scFv-Fc fusion (Fc fusion, not shown: a dimerising Fc or GST, scFv-Fc expressed in Expi293) scFv: QVQLQESGPGLVKPSETLSLTCTVSGDSISNYYWTWIRQPPGKGLEWIGYIYYSGTTNSNPSLKSRVTVSLDTSKSQFSLNLSSVTAADTAVYYCARVFNRGFAFDIWGQGTMVTVSSGGGGSGGGGSGGGGSGGGGSEIVLTQSPGTLSLSPGERATLSCRASQRISNTYLAWYQQKPGQAPRLLIYGASSRATGIPDRFSGSGSGTDFTLTISRLEPEDFAAYYCQQYDTSPLTFGGGTKVEIK; 8.15
6. 4H8 scFv-Fc fusion (Fc fusion, not shown: a dimerising Fc or GST, scFv-Fc expressed in Expi293) scFv: QVQLQQSGPGLVKPSQTLSLTCAISGDSVSSNSATWNWIRQSPSRGLEWLGRTYYRSKWYDDYAVSVKSRITINPDTSKNHLSLHLNSVTPEDTAVYYCAGGGLVGAPDGFDVWGQGTMVTVSSGGGGSGGGGSGGGGSGGGGSQSVLTQPPSASGTPGQRVTISCSGSSSNIGSDPVNWYQQLPGTAPKLLIYSNNQRPSGVPDRFSGSKSGTSASLAISGLQSEDEADYYCSAWDDSLNGYVFGTGTKVTVL; 7.73
